B1: CPEB3 Ribozyme (parent)
chain: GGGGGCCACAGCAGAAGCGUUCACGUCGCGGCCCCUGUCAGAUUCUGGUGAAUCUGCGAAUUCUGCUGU

- Variants of: B1
- measurementProtocol: self-cleavage, relative activity (ratio to wild type); higher = more cleavage; co-transcriptional
Grouping rule (self-cleavage): c1: < 0.2; c2: ≥ 0.2 and < 0.6; c3: ≥ 0.6

Here's what some known entries look like.
1. GGGGGCCCCAGCAGAAGUGUUCACGUCGCGGCCCCUGUCAGAUUCUGGUGAAUCUGCGAAUUCUGCUGU; c3
2. GGCGGCCAAAGCAGAAGCGUUCACGUCGCGGCCCCUGUCAGAUUCUGGUGAAUCUGCGAAUUCUGCUGU; c2
3. GGGGGCCACAGCAGAAGCGUUCACGUCGCGGCCCCUGUCAGAUUCUGGUGAAUCUGCGACUUCUGGUGU; c2
4. GGGGGCCACAGCUGAAGCGUUCACGUCGCGGCCCCUGUCAGAUUCUGGUGUAUCUGCGAAUUCUGCUGU; c3
5. GGGGGCCACAGCAGAAGCGUUCACGUCGCGGCCCCUGUCAGAUUAUGGUGAAUCUGCGAAUUCUGCGGU; c3
6. GGGGGCCACAGCAGAAGCGUUCGCGUCGCGGCCCCUGGCAGAUUCUGGUGAAUCUGCGAAUUCUGCUGU; c2

Q: Hello team, could you let me know which band the following variant falls into: GGGGGCCACAGCAGAAGCGUUCACGUCGCGGACCCUGUCGGAUUCUGGUGAAUCUGCGAAUUCUGCUGU
Ans: c3

Q: Hello team, could you let me know which band the following variant falls into: GGGGGCCACAGCAGAAGCGUUCACGUCGCGGCCCCUGUCCGAUUCUGGUGAAUCUGCGAAUUCUACUGU
Ans: c2

Q: Hello team, could you let me know which band the following variant falls into: GGGGGCCACAGCAGAAGCGUUCACGUCGCGGCCCCUGUCAUAUUCUGGUGAAUCUGCGAAAUCUGCUGU
Ans: c3

Q: Hello team, could you let me know which band the following variant falls into: GGGGUCCACAGCAGAAGCCUUCACGUCGCGGCCCCUGUCAGAUUCUGGUGAAUCUGCGAAUUCUGCUGU
Ans: c1

Q: Hello team, could you let me know which band the following variant falls into: GGGGGCCACAGCAGAAGCGUUCACGUCGCGGCCCCUGUCCGAUUCUGGUGAAUCUGCGAAUUGUGCUGU
Ans: c2

Q: Hello team, could you let me know which band the following variant falls into: GGGGGCCACAGCAGAAGCGUUCACGUCGCGCCCCCUGUCAGAUUCUGGUGACUCUGCGAAUUCUGCUGU
Ans: c2

Q: Hello team, could you let me know which band the following variant falls into: GGGGGCCACAGCAGAAGCGUUCUCCUCGCGGCCCCUGUCAGAUUCUGGUGAAUCUGCGAAUUCUGCUGU
Ans: c1

Q: Hello team, could you let me know which band the following variant falls into: CGGGGCCACAGAAGAAGCGUUCACGUCGCGGCCCCUGUCAGAUUCUGGUGAAUCUGCGAAUUCUGCUGU
Ans: c1

Q: Hello team, could you let me know which band the following variant falls into: GGGGGCCACAGCACAAGCGUUCACGUCGCGGCCCCUGUCAGAUUCUGGUGCAUCUGCGAAUUCUGCUGU
Ans: c2

Q: Hello team, could you let me know which band the following variant falls into: GGGGGCCACAGCAGAAGCGUUCACGUCGCGGCCCCUGCCAGAUUCUGGUGAAUCUGCGAAUUCUGCUUU
Ans: c3

Q: Hello team, could you let me know which band the following variant falls into: GGGGCCCACAGCAGAAGCGUUCACGUCUCGGCCCCUGUCAGAUUCUGGUGAAUCUGCGAAUUCUGCUGU
Ans: c1

Q: Hello team, could you let me know which band the following variant falls into: GGGGGCCACAGCAGAAGCGUUCACUUCGCGGCCCCUGUCAGAUUCUGGUAAAUCUGCGAAUUCUGCUGU
Ans: c1

Q: Hello team, could you let me know which band the following variant falls into: GGGGACCACAGCAGAAGCGUUCACGUCGCGGCCCCUGUCAGAUUCUGGUGAGUCUGCGAAUUCUGCUGU
Ans: c3

Q: Hello team, could you let me know which band the following variant falls into: GGGGCCCACAGCAGAAGCGUUCACGUCGCGGCCCCUGUCAGAUUCUGGUGAAUCUGCGAAUUCUCCUGU
Ans: c1

Q: Hello team, could you let me know which band the following variant falls into: GGGGGCCACAGCAGAAGCGUUCACGUCGCGGCGCCUGUCAGAUUCUGGUGAAUCUGCGAAUUCUGAUGU
Ans: c2

Q: Hello team, could you let me know which band the following variant falls into: GGGGGCCACAGCAGAAGCUUUCACGUCGCGGCCCCUGUCAGAUUCUGGUGACUCUGCGAAUUCUGCUGU
Ans: c2

Q: Hello team, could you let me know which band the following variant falls into: CGGGGCCACAGCAGAAGCGUUCACGUCGCGGCCCCUGUCAGAUUCUGGUGAAUCUGAGAAUUCUGCUGU
Ans: c1
